Test system: OE33
Assay: Growth inhibition of human OE33 cells after 3 days by MTT assay
Format: functional, cell-based
Conditions: OE33, 72 h
value_type: IC50 (µM)
Form entry: value (µM) — number only.

Worked set:
Please supply the value of reported IC50 for the item `Cc1nccc2c1[nH]c1cc(OCC(C)C)ccc12` 25

Please supply the value of reported IC50 for the item `Cc1nccc2c1[nH]c1cc(OC(=O)c3ccccc3)ccc12` 31

Please supply the value of reported IC50 for the item `Cc1c2c(cc[n+]1Cc1ccc(F)cc1)c1ccc(OCC3CCCCC3)cc1n2CC1CCCCC1` 1

Please supply the value of reported IC50 for the item `CCCn1c2cc(OCc3ccccc3)ccc2c2cc[n+](Cc3ccccc3F)c(C)c21` 0.25

Please supply the value of reported IC50 for the item `CCCn1c2cc(OCc3ccccc3)ccc2c2ccnc(C)c21` 9

New cases:
Please supply the value of reported IC50 for the item `CCCn1c2cc(OCc3ccccc3)ccc2c2cc[n+](Cc3ccccc3)c(C)c21` 0.3

Please supply the value of reported IC50 for the item `Cc1c2c(cc[n+]1Cc1ccccc1F)c1ccc(OCc3ccc(F)cc3)cc1n2Cc1ccc(F)cc1` 1.6

Please supply the value of reported IC50 for the item `Cc1nccc2c3ccc(OCC4CCCCC4)cc3n(CC3CCCCC3)c12` 15

Please supply the value of reported IC50 for the item `Cc1nccc2c1[nH]c1cc(OCc3cccc4ccccc34)ccc12` 8.2

###

Experiment: Growth inhibition of human OE21 cells after 3 days by MTT assay
Type: functional, cell-based
Conditions: OE21, 72 h
value_type: log10 of IC50 (log10 of the value in µM)
// do not treat as linear: log10 of IC50, unit µM

Please supply the value of reported log10 of IC50 for the item `Cc1nccc2c3ccc(OCc4ccccc4)cc3n(Cc3ccccc3)c12` 1.45

Please supply the value of reported log10 of IC50 for the item `Cc1nccc2c3ccc(OCC4CCCCC4)cc3n(CC3CCCCC3)c12` 1.23

Please supply the value of reported log10 of IC50 for the item `Cc1c2c(cc[n+]1Cc1ccccc1F)c1ccc(OCC3CCCCC3)cc1n2CC1CCCCC1` -0.46

Please supply the value of reported log10 of IC50 for the item `Cc1c2c(cc[n+]1Cc1ccc(F)cc1)c1ccc(OCc3ccc(F)cc3)cc1n2Cc1ccc(F)cc1` 0.57

Kindly review the next compound as well.
Please supply the value of reported log10 of IC50 for the item `Cc1c2c(cc[n+]1Cc1ccccc1)c1ccc(OCc3cccc(F)c3)cc1n2Cc1cccc(F)c1` -0.40

###

Experiment: Growth inhibition of human OE21 cells after 3 days by MTT assay
Assay type: functional, cell-based
Details: OE21, 72 h
Listed next: entries and their corresponding pIC50.
Scale explanation: pIC50 corresponds to minus log10 of a concentration expressed in moles per litre.

Please supply the value of reported pIC50 for the item `Cc1c2c(cc[n+]1CCc1ccccc1)c1ccc(OCc3ccccc3)cc1n2Cc1ccccc1` 5.62

Please supply the value of reported pIC50 for the item `Cc1nccc2c1[nH]c1cc(OCc3ccccc3)ccc12` 4.68

Please supply the value of reported pIC50 for the item `Cc1c2c(cc[n+]1CCO)c1ccc(OCCC(C)C)cc1n2CCC(C)C` 5.12

New cases:
Please supply the value of reported pIC50 for the item `CCCn1c2cc(OCc3ccccc3)ccc2c2ccnc(C)c21` 4.64

Please supply the value of reported pIC50 for the item `Cc1c2c(cc[n+]1CCc1ccccc1)c1ccc(OCCC(C)C)cc1n2CCC(C)C` 5.43

Please supply the value of reported pIC50 for the item `CCCn1c2cc(OCc3ccccc3)ccc2c2cc[n+](Cc3ccc(F)cc3)c(C)c21` 5.72

Please supply the value of reported pIC50 for the item `COc1ccc2c(c1)[nH]c1c(C)nccc12` 4.49

Please supply the value of reported pIC50 for the item `Cc1c2c(cc[n+]1Cc1ccc(F)cc1)c1ccc(OCc3ccccc3)cc1n2Cc1ccccc1` 6.21

Please supply the value of reported pIC50 for the item `Cc1c2c(cc[n+]1Cc1ccccc1F)c1ccc(OCc3ccc(F)cc3)cc1n2Cc1ccc(F)cc1` 5.80

Please supply the value of reported pIC50 for the item `CCCn1c2cc(OCc3ccccc3)ccc2c2cc[n+](Cc3ccccc3)c(C)c21` 6.24

Please supply the value of reported pIC50 for the item `Cc1nccc2c1[nH]c1cc(OCc3ccncc3)ccc12` 5.30

Please supply the value of reported pIC50 for the item `Cc1nccc2c3ccc(OCc4ccc(F)cc4)cc3n(Cc3ccc(F)cc3)c12` 4.82

###

System: Hs 683
Assay: cells
Conditions: Homo sapiens, Hs 683, 72 h
value_type: pIC50
Scale explanation: pIC50 corresponds to minus log10 of a concentration expressed in moles per litre.

Worked set:
Under Hs 683: report pIC50 of `Cc1c2c(cc[n+]1CCc1ccccc1)c1ccc(OCCC(C)C)cc1n2CCC(C)C` . 5.51

Under Hs 683: report pIC50 of `Cc1c2c(cc[n+]1CCC(C)C)c1ccc(OCCC(C)C)cc1n2CCC(C)C` . 6.59

Under Hs 683: report pIC50 of `Cc1c2c(cc[n+]1Cc1ccc(F)cc1)c1ccc(OCc3cccc(F)c3)cc1n2Cc1cccc(F)c1.[Br-]` . 5.35

Under Hs 683: report pIC50 of `Cc1c2c(cc[n+]1Cc1ccccc1F)c1ccc(OCc3ccccc3)cc1n2Cc1ccccc1` . 6.36

Under Hs 683: report pIC50 of `Cc1c2c(cc[n+]1Cc1ccccc1)c1ccc(OCc3ccc(F)cc3)cc1n2Cc1ccc(F)cc1` . 6.05

New cases:
Under Hs 683: report pIC50 of `CCCn1c2cc(OCc3ccccc3)ccc2c2cc[n+](Cc3ccc(F)cc3)c(C)c21` . 5.51

Under Hs 683: report pIC50 of `Cc1c2c(cc[n+]1CCc1ccccc1)c1ccc(OCC3CCCCC3)cc1n2CC1CCCCC1` . 6.51

Under Hs 683: report pIC50 of `Cc1c2c(cc[n+]1Cc1ccccc1F)c1ccc(OCC3CCCCC3)cc1n2CC1CCCCC1` . 6.60

Under Hs 683: report pIC50 of `Cc1nccc2c1[nH]c1cc(OC(=O)c3ccccc3)ccc12` . 4.28

Under Hs 683: report pIC50 of `CCCCCC[n+]1ccc2c3ccc(OCc4ccccc4)cc3n(Cc3ccccc3)c2c1C` . 6.22

Under Hs 683: report pIC50 of `Cc1c2c(cc[n+]1Cc1ccccc1)c1ccc(OCc3cccc(F)c3)cc1n2Cc1cccc(F)c1` . 5.55

Under Hs 683: report pIC50 of `Cc1c2[nH]c3cc(OCc4ccccc4)ccc3c2cc[n+]1Cc1ccccc1` . 5.44

Under Hs 683: report pIC50 of `Cc1c2c(cc[n+]1Cc1ccccc1)c1ccc(OCC3CCCCC3)cc1n2CC1CCCCC1.[Br-]` . 6.42

Under Hs 683: report pIC50 of `Cc1nccc2c1[nH]c1cc(OCCO)ccc12` . 4.39

###

Test system: Hs 683
Experiment: cells
Details: Homo sapiens, Hs 683, 72 h
Listed next: entries and their corresponding log10 IC50.
// do not treat as linear: log10 of IC50, unit nM

Worked set:
Please supply the value of reported log10 IC50 for the item `C=CCOc1ccc2c(c1)[nH]c1c(C)nccc12` 4.45

Please supply the value of reported log10 IC50 for the item `CCCn1c2cc(OCc3ccccc3)ccc2c2cc[n+](Cc3ccccc3F)c(C)c21` 2.65

Please supply the value of reported log10 IC50 for the item `CCC[n+]1ccc2c3ccc(OCc4ccccc4)cc3n(Cc3ccccc3)c2c1C` 2.78

Please supply the value of reported log10 IC50 for the item `Cc1nccc2c3ccc(OCc4cccc(F)c4)cc3n(Cc3cccc(F)c3)c12` 4.26

New cases:
Please supply the value of reported log10 IC50 for the item `Cc1c2c(cc[n+]1CCc1ccccc1)c1ccc(OCc3ccccc3)cc1n2Cc1ccccc1` 3.36

###

Listed next: entries and their corresponding solubility.
Assay: Solubility of compound at pH 7.4
Assay type: physicochemical
Conditions: buffer, read-out: solubility
Form entry: value (µM) — number only.

Please supply the value of reported solubility for the item `Cc1c2c(cc[n+]1Cc1ccccc1)c1ccc(OCC3CCCCC3)cc1n2CC1CCCCC1.[Br-]` 123

Kindly review the next compound as well.
Please supply the value of reported solubility for the item `Cc1c2c(cc[n+]1Cc1ccccc1)c1ccc(OCc3ccccc3)cc1n2Cc1ccccc1.[Br-]` 461

###

Experiment: Stability in cell culture medium without serum assessed as compound recovery after 72 hrs
Type: physicochemical
Details: read-out: Stability
value_type: remaining at 72 h

Please supply the value of reported remaining at 72 h for the item `Cc1c2c(cc[n+]1Cc1ccccc1)c1ccc(OCC3CCCCC3)cc1n2CC1CCCCC1.[Br-]` > 95%

New cases:
Please supply the value of reported remaining at 72 h for the item `Cc1c2c(cc[n+]1Cc1ccccc1)c1ccc(OCc3ccccc3)cc1n2Cc1ccccc1.[Br-]` > 95%
